B1: FBXO3 (parent)
chain: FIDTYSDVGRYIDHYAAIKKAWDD

variants of: B1; assay: protein stability index of a GFP-peptide fusion (GPS, HEK-293T) (PSI 1-6); higher = more stable; conditions: c terminus: a fixed tail appended;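 also: lentivirally expressed fusions sorted by FACS into six bins by GFP to DsRed ratio, PSI derived from sequencing read proportions per bin multiplied by bin number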
Use satisfied when the recorded protein stability index is no lower than 2; use not satisfied when it is lower.

INSERT INTO assay_data (mutant_label, group_label) VALUES
  ('K19R', 'not satisfied');

Query block: Has "F1R" a recorded protein stability index greater than or equal to 2?
Result block: satisfied

Query block: Assess whether reported protein stability index for "F1L" sits at 2 or higher.
Result block: satisfied

Query block: Does the reported protein stability index for "K20F" fall at or above the 2 mark?
Result block: satisfied

Query block: Is reported protein stability index greater than or equal to 2 here: "I2Q"
Result block: satisfied

Query block: Would you say "T4V" shows protein stability index at minimum 2?
Result block: not satisfied

Query block: Textbook exercise: given the entry "D13V" , state whether its protein stability index is greater than or equal to 2.
Result block: satisfied
